- SYSTEM: MAPK14 (human) (UniProt Q16539)
- Sequence (Q16539 whole entry, looked up): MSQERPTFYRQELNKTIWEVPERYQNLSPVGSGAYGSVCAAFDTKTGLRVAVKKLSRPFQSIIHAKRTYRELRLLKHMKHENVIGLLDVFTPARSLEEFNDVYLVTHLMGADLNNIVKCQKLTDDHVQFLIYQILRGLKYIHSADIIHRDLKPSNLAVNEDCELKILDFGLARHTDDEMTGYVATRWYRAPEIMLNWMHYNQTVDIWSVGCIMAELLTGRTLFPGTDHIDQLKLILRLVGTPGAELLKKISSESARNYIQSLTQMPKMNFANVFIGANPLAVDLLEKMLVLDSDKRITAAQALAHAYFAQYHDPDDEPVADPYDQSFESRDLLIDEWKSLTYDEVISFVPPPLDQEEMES
READOUT_LABEL: pKi
Please note pKi is a logarithmic value: minus log10 of concentration in mol/L. Answer with that number alone.

Examples from the recorded data:
[[record]]
input_smiles = "CC(C)(C)c1cc(NC(=O)C(=O)c2cccc3ccccc23)n(-c2ccc(OCC(=O)NCCO)cc2)n1"
value = 6.20

[[record]]
input_smiles = "c1ccc(-c2ncc3ccccn23)cc1"
value = 4.30

[[record]]
input_smiles = "CC(C)(C)c1cc(NC(=O)c2cc3ccccc3s2)n(-c2ccc(OCC(=O)O)cc2)n1"
value = 5.60

[[record]]
input_smiles = "Cc1cc(=O)[nH]nc1-c1ccc(NC(=O)Nc2cc(C(F)(F)F)ccc2F)c(Cl)c1"
value = 7.00

[[record]]
input_smiles = "COc1c(-c2nc3ccccc3[nH]2)c(O)cc2oc(C)cc(=O)c12"
value = 5.40


I am curious: what pKi value has been reported for `Fc1cccc(CNc2ncnc3[nH]cnc23)c1` ?
4.80

Which pKi is reported for this compound? `Nc1ccc2cc(NCCc3ccccc3)cc(Nc3ncccn3)c2n1`
5.60

So what's the measured pKi for this one? `NC(=O)c1ccc2nc(-c3ccc([N+](=O)[O-])o3)cn2c1`
5.50

I have this compound here, `Cc1ccc(-c2cc(-c3cc(Br)ccc3O)[nH]c(=O)c2C#N)s1` , and I need its recorded pKi.
5.60

---

- SYSTEM: CDK2 (human) (UniProt P24941)
READOUT_LABEL: pKi
The scale used: pKi is minus the common logarithm of the concentration in molar units.

Form field: pKi recorded for `CCCCOc1cc(-c2ccncc2)cc2[nH]nc(N)c12` with CDK2 (human) (UniProt P24941) (enter value)
6.00

Which pKi is reported with CDK2 (human) (UniProt P24941) for this entry: `Cc1ccc(Nc2nccc(Nc3ccccc3C(=O)O)n2)cc1F` ?
6.40

---

Data export: pKi values recorded with UniProt:O75116.
Just so you know, pKi here is -log10 of the concentration in molar units; reply with that number alone.

# count of solved cases: 4
[[record]]
molecule = "COCC(C)Nc1cc(-c2c[nH]c3ncccc23)cc(Cl)n1 (stereo not given)"
value = 8.10

[[record]]
molecule = "CCCCC(=O)Nc1cc(-c2c[nH]c3ncccc23)cc(Cl)n1"
value = 6.80

[[record]]
molecule = "CN(C)C1CCC(Nc2nc(Cl)cc(-c3c[nH]c4ncccc34)n2)CC1 (stereo not given)"
value = 8.60

[[record]]
molecule = "NCCCn1cc(-c2cc(-c3cc4ccccc4s3)c3[nH]ncc3c2)c2nc(N)ncc21"
value = 7.20


Could you tell me which pKi is on file for `Cn1cc(-c2ccccc2)c2nc(-c3ccncc3)cc(=O)n21` ?
5.50

# lookup: pKi of `Nc1ncnc2c1c(-c1cnc3[nH]ccc3c1)nn2C1CCCC1`
7.40

I would be grateful if you could share the reported pKi for `COCCN(CCOC)c1cc(-c2c[nH]c3ncccc23)cc(Cl)n1` .
7.40

Value lookup for pKi; key = `CC(C)(O)CNc1cc(-c2c[nH]c3ncccc23)cc(Cl)n1`
7.80

Which pKi value belongs to `OCCNc1cc(-c2c[nH]c3ncccc23)cc(Cl)n1` ?
7.70

---

- SYSTEM: UniProt:O75116
- TEST_SUMMARY: Enzyme Assay
READOUT_LABEL: pKi
// field semantics: pKi = negative decimal log of concentration (mol/L)

Solved cases (4 shown):
[[record]]
input_smiles = "CC(C)(C)Oc1cc(-c2ccncc2)cc2[nH]nc(N)c12"
value = 7.30

[[record]]
input_smiles = "O=C1Nc2ccccc2Nc2cc(-c3ccncc3)ccc21"
value = 6.50

[[record]]
input_smiles = "O=C1c2ccccc2-c2n[nH]c3cccc1c23"
value = 5.50

[[record]]
input_smiles = "Fc1cccc(-c2c[nH]c3ncccc23)c1"
value = 6.50


Please tell me: pKi of `Nc1n[nH]c2ccc(-c3cc(Cc4ccccc4)no3)cc12` , system UniProt:O75116?
7.60

Form field: pKi recorded for `Cc1n[nH]c2ccc(-c3cncc(OCCNS(C)(=O)=O)c3)cc12` with UniProt:O75116 (enter value)
6.80

---

Record: pKi reported on CDK2 (human).
Recall that pKi is obtained by taking minus log10 of the concentration measured in molar.

Recorded pKi of `NC(=O)c1ccc(Nc2ncnc3[nH]cc(-c4ccccc4)c23)cc1` , please.
6.30

I'd like to know its pKi. The compound in question is NC1CCCCC1Nc1nccc(-c2c[nH]c3ncccc23)n1 (stereo not given)
7.90

---

These records show pKi for CDK2 (human).
Quick note: pKi values are minus log10 of concentrations in mol/L.

Before answering, review these 4 worked examples.
[[record]]
compound = "O=C1c2ccccc2-c2n[nH]c3cccc1c23"
value = 7.10

[[record]]
compound = "c1ccc(-c2n[nH]cc2-c2ccncc2)cc1"
value = 4.90

[[record]]
compound = "CCCCNc1cc(-c2c[nH]c3ncccc23)ncn1"
value = 6.70

[[record]]
compound = "Nc1n[nH]c2ccc(-c3nnn(Cc4ccccc4)c3C3CC3)cc12"
value = 7.10


Endpoint output: pKi of `CN(C)c1cc(-c2ccncc2)cc2[nH]nc(N)c12` . Value?
6.20

Given the compound `C=CCNc1cc(-c2c[nH]c3ncccc23)cc(Cl)n1` , what is its reported pKi?
7.00

---

Parameter Ki, tested on CDK2 (human) (UniProt P24941), listed per item.
Write the answer as a number in nM, unit excluded.

Take a look at these entries with their results.
[[record]]
input_smiles = "CS(=O)(=O)Nc1ccccc1-c1ccc2c(c1)Nc1ccccc1NC2=O"
units_symbol = "nM"
value = 6310

[[record]]
input_smiles = "CCOC(=O)c1cn(-c2ccc(O)cc2C)c2cc(-c3ccncc3)ccc2c1=O"
units_symbol = "nM"
value = 3980

[[record]]
input_smiles = "CNCCOc1cncc(-c2ccc3[nH]nc(C)c3c2)c1"
units_symbol = "nM"
value = 501

[[record]]
input_smiles = "Cc1ccccc1-c1c(-c2ccc3[nH]nc(C)c3c2)nnn1Cc1ccccc1"
units_symbol = "nM"
value = 3.98

[[record]]
input_smiles = "O=C1Nc2ccccc2Nc2cc(-c3ccncc3)ccc21"
units_symbol = "nM"
value = 1000


What does the record list as Ki for `c1cnc2[nH]cc(-c3ccnc(NCC4CCCCC4)n3)c2c1` ?
3.98

Record request: Ki value, item `O=C1CN=C(c2cccc(Cl)c2)c2c(sc3c2CCCC3)N1`
7940

Param item = `O=C1Nc2ccccc2Nc2cc(-c3ccncc3Cl)ccc21` ; retrieve measured Ki.
501

What does the record list as Ki for `c1ccc(Cn2cc(-c3ccc4[nH]nc(-c5cn(Cc6ccccc6)nn5)c4c3)nn2)cc1` ?
5.01

---

Read-out record for ROCK2 (human) (UniProt O75116): Ki
Value expressed in nM; do not type the unit.

Worked cases, Ki given:
[[record]]
input_smiles = "Cc1n[nH]c2ccc(-c3cncc(OCCN(C)S(C)(=O)=O)c3)cc12"
readout_label = "Ki"
value = 100

[[record]]
input_smiles = "COCCNc1cc(-c2c[nH]c3ncccc23)cc(Cl)n1"
readout_label = "Ki"
value = 5.01

[[record]]
input_smiles = "NC(=O)c1ccc(-c2ccnc(N)n2)cc1N1CCCCC1"
readout_label = "Ki"
value = 1580

[[record]]
input_smiles = "CN(C)c1cc(-c2ccncc2)cc2[nH]nc(N)c12"
readout_label = "Ki"
value = 79.4

[[record]]
input_smiles = "CCNC(=O)c1[nH]nc(-c2cc(Cl)c(O)cc2O)c1-c1ccc(OC)cc1"
readout_label = "Ki"
value = 2510

[[record]]
input_smiles = "COc1ccc(C(=O)Nc2n[nH]c3ccc(-c4cn(Cc5ccccc5)nn4)cc23)cc1OC"
readout_label = "Ki"
value = 794

[[record]]
input_smiles = "CN(C)CCCOc1cc(-c2ccncc2)cc2[nH]nc(N)c12"
readout_label = "Ki"
value = 251

[[record]]
input_smiles = "CCCCNc1cc(-c2c[nH]c3ncccc23)ncn1"
readout_label = "Ki"
value = 20


Recall the recorded Ki for `Cc1cc(=O)n2[nH]cc(C(=O)NCc3ccccc3)c2n1` with ROCK2 (human) (UniProt O75116) and state it.
Sequence (O75116 whole entry, looked up): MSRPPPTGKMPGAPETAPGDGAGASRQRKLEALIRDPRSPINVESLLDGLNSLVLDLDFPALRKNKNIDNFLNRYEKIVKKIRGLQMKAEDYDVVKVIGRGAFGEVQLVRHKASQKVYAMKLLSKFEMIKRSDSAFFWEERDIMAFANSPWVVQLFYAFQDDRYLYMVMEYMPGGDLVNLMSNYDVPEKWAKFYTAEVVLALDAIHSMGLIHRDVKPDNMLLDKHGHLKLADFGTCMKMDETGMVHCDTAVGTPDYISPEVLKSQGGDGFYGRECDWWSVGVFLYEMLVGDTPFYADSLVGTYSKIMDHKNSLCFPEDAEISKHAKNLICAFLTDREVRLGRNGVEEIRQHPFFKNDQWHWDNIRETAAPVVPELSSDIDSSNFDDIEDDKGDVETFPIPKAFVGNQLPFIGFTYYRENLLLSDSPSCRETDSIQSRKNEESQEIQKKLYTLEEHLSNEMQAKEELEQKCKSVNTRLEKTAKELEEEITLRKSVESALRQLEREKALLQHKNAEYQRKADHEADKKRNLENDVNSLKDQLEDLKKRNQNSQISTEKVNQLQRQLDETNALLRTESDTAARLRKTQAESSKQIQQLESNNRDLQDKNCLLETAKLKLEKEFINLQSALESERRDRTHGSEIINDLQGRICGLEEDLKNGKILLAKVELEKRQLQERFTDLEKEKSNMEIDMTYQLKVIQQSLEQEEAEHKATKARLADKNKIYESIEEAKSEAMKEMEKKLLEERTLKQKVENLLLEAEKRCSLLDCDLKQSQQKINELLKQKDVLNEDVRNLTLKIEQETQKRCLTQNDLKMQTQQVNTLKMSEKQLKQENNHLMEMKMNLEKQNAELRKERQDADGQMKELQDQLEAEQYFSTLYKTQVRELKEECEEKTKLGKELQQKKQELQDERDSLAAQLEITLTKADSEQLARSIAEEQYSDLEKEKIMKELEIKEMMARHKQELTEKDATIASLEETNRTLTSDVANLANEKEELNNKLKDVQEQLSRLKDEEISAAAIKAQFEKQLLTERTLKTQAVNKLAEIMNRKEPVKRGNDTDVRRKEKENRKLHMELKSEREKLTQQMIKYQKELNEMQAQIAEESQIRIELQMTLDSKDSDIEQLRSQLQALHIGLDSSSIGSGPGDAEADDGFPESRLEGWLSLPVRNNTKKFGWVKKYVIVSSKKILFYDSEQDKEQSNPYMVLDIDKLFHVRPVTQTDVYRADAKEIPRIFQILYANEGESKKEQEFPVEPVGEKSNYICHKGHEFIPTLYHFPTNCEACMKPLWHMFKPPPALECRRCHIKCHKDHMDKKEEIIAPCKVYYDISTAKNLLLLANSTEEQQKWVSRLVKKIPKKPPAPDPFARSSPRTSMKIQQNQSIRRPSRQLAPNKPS
2510

---

- SYSTEM: ROCK2 (human)
- TEST_SUMMARY: Enzyme Assay
READOUT_LABEL: Ki

[[record]]
input_smiles = "NC(=O)c1ccc(-c2nc(-c3ccc4c(c3)OCO4)c(-c3ccccn3)[nH]2)cc1"
system = "ROCK2 (human)"
value = "> 3.98 µM"

[[record]]
input_smiles = "COc1cc2c(cc1F)C(c1ccccc1Cl)=Nc1c(n[nH]c1C)N2"
system = "ROCK2 (human)"
value = "> 7.94 µM"

[[record]]
input_smiles = "O=C(Nc1cc(-c2c[nH]c3ncccc23)cc(Cl)n1)c1ccccc1"
system = "ROCK2 (human)"
value = "> 1 µM"

[[record]]
input_smiles = "COc1cc2ncn(-c3cc(OCc4ccccc4C(F)(F)F)c(C(N)=O)s3)c2cc1OC"
system = "ROCK2 (human)"
value = "> 7.94 µM"


Consider the record given below.
Query the reported Ki for ROCK2 (human); item: `O=c1cc(-c2cccc(F)c2)[nH]c2c(-c3ccc(F)cc3)cnn12`
> 7.94 µM

All values here come from the Kinase Knowledgebase extract (Sharma et al. 2016).
